- system.name: caspase-1 (Homo sapiens)
- Construct: made in house
- Sequence (P29466 120-297 limits assumed): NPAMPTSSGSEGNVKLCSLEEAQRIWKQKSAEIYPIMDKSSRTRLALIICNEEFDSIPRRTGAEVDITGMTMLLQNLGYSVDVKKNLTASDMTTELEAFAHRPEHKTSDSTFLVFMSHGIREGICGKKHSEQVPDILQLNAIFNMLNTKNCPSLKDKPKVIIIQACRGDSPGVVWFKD
- Sequence (P29466 317-404 limits assumed): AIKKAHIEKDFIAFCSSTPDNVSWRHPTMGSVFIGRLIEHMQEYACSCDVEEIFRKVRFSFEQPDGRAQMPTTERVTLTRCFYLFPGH
- method.summary: Screening on caspases inhibiting activity (recombinant enzyme, fluorogenic AMC substrate)
- Type: biochemical
- particulars: Irreversible Inhibitors; read-out: Kobs/[I] for caspase-1
measurement.label: kinact/KI (M⁻¹ s⁻¹)

// known answers, use as guide
# compound, kinact/KI (M⁻¹ s⁻¹)
records = [
    ("CCCCC1(C(=O)N[C@@H](CC(=O)O)C(=O)COC(=O)c2c(Cl)cccc2Cl)CC([C@@H](NC(=O)CCC(=O)O)C(C)C)=NO1 (single isomer, unassigned)", 14900),
    ("CC(C)[C@H](NC(=O)c1cccc2ccccc12)C1=NOC(Cc2ccccc2)(C(=O)N[C@@H](CC(=O)O)C(=O)COC(=O)c2c(F)cccc2F)C1 (stereo partly shown)", 577000),
    ("CCCC1(C(=O)N[C@@H](CC(=O)O)C(=O)COC(=O)c2c(Cl)cccc2Cl)CC([C@@H](NC(=O)CCC(=O)O)C(C)C)=NO1 (single isomer, unassigned)", 14000),
    ("CC1(C(=O)N[C@@H](CC(=O)O)C(=O)COC(=O)c2c(Cl)cccc2Cl)CC([C@H](CCC(=O)O)NC(=O)CCC(=O)O)=NO1 (single isomer, unassigned)", 30800),
]

1: CC(C)[C@H](NC(=O)c1ccc2ccccc2n1)C1=NOC(Cc2ccccc2)(C(=O)N[C@@H](CC(=O)O)C(=O)COC(=O)c2c(Cl)cccc2Cl)C1 (stereo partly shown) [Compound 42mp]
2: CC(C)[C@H](NC(=O)CCc1ccccc1)C1=NOC(Cc2ccccc2)(C(=O)N[C@@H](CC(=O)O)C(=O)COC(=O)c2c(Cl)cccc2Cl)C1 (mixture of isomers)
Query: Kindly identify which of 1 and 2 has the larger recorded kinact/KI value. Indicate which entry you chose by stating its label.
Response: 1

// provenance: patent EP1212309B1
